System: Protein Mdm4 (Homo sapiens) + E3 ubiquitin-protein ligase Mdm2 (Homo sapiens) (UniProt O15151+Q00987)
Sequence (O15151 whole entry, looked up): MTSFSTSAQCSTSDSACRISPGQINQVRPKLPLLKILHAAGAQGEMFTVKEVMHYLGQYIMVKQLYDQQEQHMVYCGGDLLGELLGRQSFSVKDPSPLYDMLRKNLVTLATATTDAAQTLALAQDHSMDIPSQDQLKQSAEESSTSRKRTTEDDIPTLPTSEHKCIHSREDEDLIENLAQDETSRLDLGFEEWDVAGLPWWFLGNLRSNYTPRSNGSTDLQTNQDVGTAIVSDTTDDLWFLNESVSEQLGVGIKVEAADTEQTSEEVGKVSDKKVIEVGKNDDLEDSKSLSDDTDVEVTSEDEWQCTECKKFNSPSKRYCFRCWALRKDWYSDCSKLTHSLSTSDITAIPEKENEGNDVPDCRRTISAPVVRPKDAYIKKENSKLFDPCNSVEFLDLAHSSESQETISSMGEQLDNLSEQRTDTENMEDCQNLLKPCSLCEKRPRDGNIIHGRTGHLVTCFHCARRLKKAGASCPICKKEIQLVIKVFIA
Sequence (Q00987 whole entry, looked up): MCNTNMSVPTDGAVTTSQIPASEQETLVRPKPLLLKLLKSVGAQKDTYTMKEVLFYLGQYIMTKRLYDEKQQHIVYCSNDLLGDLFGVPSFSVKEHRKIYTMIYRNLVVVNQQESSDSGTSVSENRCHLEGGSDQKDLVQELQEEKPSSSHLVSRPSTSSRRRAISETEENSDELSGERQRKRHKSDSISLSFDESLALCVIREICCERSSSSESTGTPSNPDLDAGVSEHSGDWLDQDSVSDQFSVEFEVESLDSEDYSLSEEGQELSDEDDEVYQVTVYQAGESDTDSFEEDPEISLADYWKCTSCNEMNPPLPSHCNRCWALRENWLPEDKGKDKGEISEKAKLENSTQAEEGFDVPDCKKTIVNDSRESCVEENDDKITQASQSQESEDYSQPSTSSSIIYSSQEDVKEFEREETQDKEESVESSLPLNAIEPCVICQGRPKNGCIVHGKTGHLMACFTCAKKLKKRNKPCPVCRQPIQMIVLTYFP
Assay Summary: inhibitors of human Mdm2-MdmX association, primary screen, cell-based, luminescence, split luciferase, SaOS-2, uHTS (AID 485346)
Experimental Parameters: SaOS-2 split-luciferase Mdm2/MdmX complementation, at 8 µM
In all, about 330,000 compounds went through this assay and about 10,000 (3%) were called active.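 Rule for the calls: active = inhibition of at least 50% at 8 µM in the primary screen; inactive = the rest.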 This excerpt belongs to a sample that is enriched for actives.
Give one outcome, nothing more. List: Yes (active), No (inactive)

Record request — test call for "O=C(Nc1ccc(N2C(=O)c3cccc4cccc(c34)C2=O)cc1)c1ccc(N2CCCCC2)c([N+](=O)[O-])c1"
No
